Reference source: PubChem BioAssay

- EXPERIMENT_DESCRIPTION: binders of probe aFGF10 on microarray, primary screen, stem cell growth factor project, biochemical, small-molecule microarray, fluorescence 635/667 (AID 1071);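 note: score merges 667 nm spot intensity and signal to noise from triplicate slides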
- TEST_SETTINGS: higher = more signal
The following compounds are shown together with reported composite z-score values.
Could you keep your reply to the number by itself?

COMPOUND	composite z-score
O=C1[C@H]2[C@H]3[C@H](O)[C@H](O)CC(=NOCc4ccccc4)[C@H]3CC[C@H]2C(=O)N1C1CCCCC1	0.412
COC(=O)[C@H](C)NC(=O)CCC1CC(OC(=O)NCCc2ccc(F)cc2)CC2(CCCC(COC(=O)NCCOc3ccccc3)O2)O1 (stereo partly drawn)	0.532
CON=C[C@@H](OC)[C@H](C)C=CCC(=O)OC	0.172

composite z-score for CCc1cc2c(nc1CC)CCN(CCC(C)=NOC(C)CN1CCCCc3nc(C)c(C)cc31)C2 (stereo not drawn) is 0.541

Kindly note the recorded composite z-score for CC(CCN1CCCc2nc(C)c(C)cc21)=NO[C@@H](C)c1cn([C@H](CO)Cc2ccccc2)nn1 , which is 0.389

Form: compound = Cc1ccc(C(C)C)n1C(=O)OC(C)(C)C ; composite z-score = 0.357

Record CC(CCN1CCCCc2nc(C)c(C)cc21)=NOC[C@@H](O)[C@H]1O[C@@H]2OC(C)(C)O[C@@H]2[C@H]1O . Reported composite z-score: 0.188

The recorded composite z-score for entry CCOC(=O)CCN1C(=O)[C@H]2[C@H]3[C@H](O)[C@H](O)CC(=NO[C@@H]4O[C@H](CO)[C@@H](O)[C@H](O)[C@H]4O)[C@@H]3CC[C@H]2C1=O equals 1.04

Input C#CCCCON=C1C[C@@H](O)[C@@H](O)[C@@H]2[C@@H]3C(=O)N([C@@H](C)c4ccccc4)C(=O)[C@@H]3CC[C@@H]12 . Output composite z-score: -0.46

Reported composite z-score for CC(CCN1CCCc2nc(C)c(C)cc21)=NO[C@H](C)c1cn([C@@H]2COC[C@H]2O)nn1 was 0.359

composite z-score reported for this compound C[C@@H]1C=CCC(=O)OC[C@H](C)C(=O)N[C@@H](Cc2ccccc2)C(=O)OC1 : 0.294
